Molecular target: proteinase K (Parengyodontium album, UniProt P06873)
Sequence (P06873 106-384): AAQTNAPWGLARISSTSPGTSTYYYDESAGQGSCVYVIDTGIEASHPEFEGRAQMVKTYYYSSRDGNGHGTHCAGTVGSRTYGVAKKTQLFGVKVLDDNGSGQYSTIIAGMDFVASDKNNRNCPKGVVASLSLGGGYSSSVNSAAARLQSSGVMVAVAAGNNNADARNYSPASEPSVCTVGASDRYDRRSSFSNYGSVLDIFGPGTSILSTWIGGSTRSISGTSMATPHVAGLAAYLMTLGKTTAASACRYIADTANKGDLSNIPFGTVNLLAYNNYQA
Test: Detection of β-actin RNA in HeLa cell lysates after stop solution (in vitro validation)
Type: biochemical
Conditions: FIG. 6; ~10,000 HeLa cells lysed, β-actin RT-PCR
Experimental readout: concentration providing effective inhibition of proteinase K

Substance	Observed result
MeOSuc-AlaAlaAlaProPhe-CH2Cl (AAAPF; HELM PEPTIDE1{[COC(=O)CCC(=O)[*:2]].A.A.A.P.F.[ClC[*:1]]}$$$$V2.0; SMILES COC(=O)CCC(=O)N[C@@H](C)C(=O)N[C@@H](C)C(=O)N[C@@H](C)C(=O)N1CCC[C@H]1C(=O)N[C@@H](Cc1ccccc1)C(=O)CCl) [MeOSuc-AAAPF-CH2Cl]	about 0.1 mM
MeOSuc-AlaAlaAlaProVal-CH2Cl (AAAPV; HELM PEPTIDE1{[COC(=O)CCC(=O)[*:2]].A.A.A.P.V.[ClC[*:1]]}$$$$V2.0; SMILES COC(=O)CCC(=O)N[C@@H](C)C(=O)N[C@@H](C)C(=O)N[C@@H](C)C(=O)N1CCC[C@H]1C(=O)N[C@H](C(=O)CCl)C(C)C) [MeOSuc-AAAPV-CH2Cl]	0.5 mM
methoxysuccinyl-AAAPL-chloromethyl ketone (HELM PEPTIDE1{[COC(=O)CCC(=O)[*:2]].A.A.A.P.L.[ClC[*:1]]}$$$$V2.0; SMILES COC(=O)CCC(=O)N[C@@H](C)C(=O)N[C@@H](C)C(=O)N[C@@H](C)C(=O)N1CCC[C@H]1C(=O)N[C@@H](CC(C)C)C(=O)CCl) [MeOSuc-AAAPL-CH2Cl]	about 0.1 mM
methoxysuccinyl-AAPL-chloromethyl ketone (HELM PEPTIDE1{[COC(=O)CCC(=O)[*:2]].A.A.P.L.[ClC[*:1]]}$$$$V2.0; SMILES COC(=O)CCC(=O)N[C@@H](C)C(=O)N[C@@H](C)C(=O)N1CCC[C@H]1C(=O)N[C@@H](CC(C)C)C(=O)CCl) [MeOSuc-AAPL-CH2Cl]	about 0.1 mM
